- Tested on: SK-HEP1
- Assay method text: Antiproliferative activity against human SK-HEP1 cells assessed as cell viability at 80 uM incubated for 72 hrs by CCK-8 assay
- Type: functional
- Measurement context: read-out: Activity
Value type: viability at 80 µM (%)

In [3]: df
Out[3]:
                           substance_smiles  system_tested  reported_measurement
0  Cn1cc(/C(=N\O)C(=O)Nc2ccc(Br)c(F)c2)c2ccccc21        SK-HEP1                  75.6
1  Cn1cc(/C(=N/O)C(=O)Nc2ccc(Cl)cc2)c2ccccc21        SK-HEP1                  71.6
2  Cn1cc(/C(=N/O)C(=O)Nc2ccc(Br)cc2)c2ccccc21        SK-HEP1                  29.1
3  Cn1cc(/C(=N\O)C(=O)Nc2cccc(F)c2)c2ccccc21        SK-HEP1                    40
4  Cn1cc(/C(=N\O)C(=O)Nc2cccc(Cl)c2)c2ccccc21        SK-HEP1                  31.4
5  Cn1cc(/C(=N/O)C(=O)Nc2cccc(F)c2)c2ccccc21        SK-HEP1                    68

---

- System: HeLa
- Assay method text: Antiproliferative activity against human HeLa cells assessed as cell viability at 80 uM incubated for 72 hrs by CCK-8 assay
- Format: functional
- Measurement context: read-out: Activity
Value type: viability at 80 µM (%)

>>> print(df.to_string())
                            substance_smiles          value_type  measure_unit  reported_measurement
 0  Cn1cc(/C(=N/O)C(=O)Nc2ccc(Br)cc2)c2ccccc21  viability at 80 µM             %                  18.4
 1  Cn1cc(/C(=N\O)C(=O)Nc2ccc(Br)cc2)c2ccccc21  viability at 80 µM             %                  14.8
 2   Cc1ccccc1NC(=O)/C(=N/O)c1cn(C)c2ccccc12  viability at 80 µM             %                  77.1
 3  Cn1cc(/C(=N\O)C(=O)Nc2ccc(C(F)(F)F)cc2)c2ccccc21  viability at 80 µM             %                  15.8
 4   Cc1ccccc1NC(=O)/C(=N\O)c1cn(C)c2ccccc12  viability at 80 µM             %                  86.3
 5  Cn1cc(/C(=N/O)C(=O)Nc2cccc(Cl)c2)c2ccccc21  viability at 80 µM             %                  64.6
 6  Cn1cc(/C(=N/O)C(=O)Nc2ccc(Br)c(F)c2)c2ccccc21  viability at 80 µM             %                  71.2
 7  Cn1cc(/C(=N\O)C(=O)Nc2ccc(Br)c(F)c2)c2ccccc21  viability at 80 µM             %                  56.7
 8  Cn1cc(/C(=N\O)C(=O)Nc2ccc(Cl)cc2)c2ccccc21  viability at 80 µM             %                  12.3
 9  Cn1cc(/C(=N/O)C(=O)Nc2cccc(F)c2)c2ccccc21  viability at 80 µM             %                  61.2
10  Cn1cc(/C(=N\O)C(=O)Nc2cccc(Cl)c2)c2ccccc21  viability at 80 µM             %                    14
11  Cn1cc(/C(=N/O)C(=O)Nc2ccc(Cl)cc2)c2ccccc21  viability at 80 µM             %                  57.2
12  Cn1cc(/C(=N\O)C(=O)Nc2cccc(F)c2)c2ccccc21  viability at 80 µM             %                  53.2
13  Cn1cc(/C(=N/O)C(=O)Nc2ccc(C(F)(F)F)cc2)c2ccccc21  viability at 80 µM             %                  25.7
